CONDITION_PARAMETERS: in cyclohexane, 293.15 K
ENDPOINT: solubility (mole fraction)

1. CC(=O)N(CC(O)CO)c1c(I)c(C(=O)NCC(O)CO)c(I)c(C(=O)NCC(O)CO)c1I (stereo unspecified) ... 1.55e-05

====

CONDITION_PARAMETERS: in acetone, 298.15 K
ENDPOINT: solubility (mole fraction)

1. CC(=O)N(CC(O)CO)c1c(I)c(C(=O)NCC(O)CO)c(I)c(C(=O)NCC(O)CO)c1I (stereo unspecified) ... 0.000308

====

CONDITION_PARAMETERS: in acetonitrile, 303.15 K
ENDPOINT: solubility (mole fraction)

1. CC(=O)N(CC(O)CO)c1c(I)c(C(=O)NCC(O)CO)c(I)c(C(=O)NCC(O)CO)c1I (stereo unspecified) ... 0.000175
